Values were extracted from paper PMC5540273.

System: MAP3K1;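 note: KINOMEscan kinase panel screen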
statedConditions: concentration: 1 μM,replicates: in singlicate; n = 1
recordedMetric: %Inh (%)

compound	readingUnit	testValue
O=C(Nc1n[nH]c2cc(-c3ccco3)ccc12)C1CC1 [SB-737447]	%	0
COC(=O)c1cccc(NC(=O)NC2CCN(c3ccnc(Nc4cc(OC)c(OC)c(OC)c4)n3)C2)c1 (stereo not drawn) [GSK1379767]	%	0
Nc1nccc(-c2ccc3c(N)n[nH]c3c2)n1 [GSK1034945]	%	20
Cc1n[nH]c2cc(Nc3ccnc(Nc4cccc(CN5CCOCC5)c4)n3)ccc12 [GW682569]	%	29
CC(=O)c1c(-c2ccncc2)[nH]c(-c2ccncc2)c1C [GW493036]	%	5
Cl.Cl.NC[C@H](CC1CCCCC1)NC(=O)c1ccc(-c2ccnc3[nH]ccc23)s1 [GSK1581428]	%	12
O=C(NOCC1CC1)c1cc(Br)c(F)c(F)c1Nc1ccc(I)cc1Cl	%	0
CCOC(=O)N1CCC(n2cnc(-c3ccc(F)cc3)c2-c2ccnc(N)n2)CC1 [SB-219952]	%	29
CS(=O)(=O)c1cccc(CNc2nc(Nc3ccc4c(c3)[C@@H]3C[C@@H]4CNC3=O)ncc2C(F)(F)F)c1	%	0
